- ASSAY_INFO: qHTS profiling of the MIPE4 collection as inhibitors of Plasmodium falciparum (3D7) proliferation (AID 743344);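 also: scaled between DMSO vehicle wells and 0.29 µM artemisinin as full inhibition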
- COND: P. falciparum 3D7 in erythrocytes, SYBR Green DNA fluorescence, 72 h; at 28.5 µM unless noted
Measured parasite growth, % of DMSO control accompanies every entry in the list below.
OUTCOME_MEASURE: parasite growth, % of DMSO control (%)

MOLECULE: O=C1c2cccc(O)c2C(=O)c2c(O)cc(CO)cc21
OUTCOME_MEASURE: parasite growth, % of DMSO control
MEASUREMENT_UNIT: %
VAL: 321
--
MOLECULE: CC(=O)N[C@H]1[C@@H]([C@H](O)[C@H](O)CO)OC(C(=O)O)=C[C@@H]1N=C(N)N
OUTCOME_MEASURE: parasite growth, % of DMSO control
MEASUREMENT_UNIT: %
VAL: 96.2
--
MOLECULE: CC(=O)O[C@H]1C[C@@H]2CC[C@H]3[C@H]4C[C@H]([N+]5(C)CCCCC5)[C@@H](OC(C)=O)[C@@]4(C)CC[C@@H]3[C@@]2(C)C[C@H]1[N+]1(C)CCCCC1
OUTCOME_MEASURE: parasite growth, % of DMSO control
MEASUREMENT_UNIT: %
VAL: 73.3
--
MOLECULE: COc1cc([C@@H]2c3cc4c(cc3[C@H](O)[C@H]3COC(=O)[C@@H]23)OCO4)cc(OC)c1OC
OUTCOME_MEASURE: parasite growth, % of DMSO control
MEASUREMENT_UNIT: %
VAL: 52.9
--
MOLECULE: O=C1CC[C@@]2(O)[C@H]3Cc4ccc(O)c5c4C2(CCN3CC2CC2)[C@H]1O5
OUTCOME_MEASURE: parasite growth, % of DMSO control
MEASUREMENT_UNIT: %
VAL: 101
--
MOLECULE: C=C1C[C@@]2(O)O[C@@]3(C[C@H]2C(C)C)[C@H](C)CC[C@H]13
OUTCOME_MEASURE: parasite growth, % of DMSO control
MEASUREMENT_UNIT: %
VAL: 70.7
--
MOLECULE: CC(C(=O)O)c1ccc(-c2ccccc2)c(F)c1 (centres undefined)
OUTCOME_MEASURE: parasite growth, % of DMSO control
MEASUREMENT_UNIT: %
VAL: 86.5
--
MOLECULE: C[C@H](CCC(=O)O)[C@H]1CC[C@H]2[C@H]3[C@@H](CC[C@]12C)[C@@]1(C)CC[C@@H](O)C[C@H]1C[C@@H]3O
OUTCOME_MEASURE: parasite growth, % of DMSO control
MEASUREMENT_UNIT: %
VAL: 8.82
--
MOLECULE: NC(=O)c1cccc(-c2cccc(OC(=O)NC3CCCCC3)c2)c1
OUTCOME_MEASURE: parasite growth, % of DMSO control
MEASUREMENT_UNIT: %
VAL: 81
